Biological target: human GLP-1 receptor (human, UniProt P43220 24-463)
Assay: cell-based or functional assay
Starred links: 1 amine or outer side, 2 acyl side, 3 side chain; linkers in the order of their positions; H or OH if unused. Non-standard residues stand in square brackets, D forms with d. Groups on a side chain read outwards from the residue. No end group written: not given here. *: point of attachment. C16N3 = 16-azido-hexadecanoic acid, [N-]=[N+]=NCCCCCCCCCCCCCCCC(=O)*; C5N3 = 5-azido pentinoic acid, [N-]=[N+]=NCCCCC(=O)*; C18 diacid = O=C(O)CCCCCCCCCCCCCCCCC(=O)*; Lys(N3) = [N-]=[N+]=NCCCC[C@H](N)C(=O)O; γGlu = O=C(O)[C@H](CCC(=O)[*:2])N[*:1]; Met(O2) = CS(=O)(=O)CC[C@H](N)C(=O)O; Palmitoyl = CCCCCCCCCCCCCCCC(=O)*; AEEA = NCCOCCOCC(=O)O; Aib = CC(C)(N)C(=O)O
Threshold check on hGLP1R EC50 (cAMP activity assay): at or above 0.07 nM gives criterion met, strictly below gives criterion not met.

BINDER: HXQGTFTSDKSKYLDERAAQDFVXWLLXT (D-Ser (s) at 2; Lys 10 K(γEγEC16); Nle(εN3) at 24; γE at 28; C-terminal amide) [PEP11]
CAT: criterion not met

BINDER: H[dS]QGTFTSDK([γGlu-γGlu-Palmitoyl])SKYLDERAAK([AEEA-C5N3])DFVQWLLDT-NH2 [PEP16]
CAT: criterion not met

BINDER: H[dS]QGTFTSDYSKYLDERAAK([AEEA-AEEA-γGlu-C16N3])DFVQWLLDT-NH2 [PEP26]
CAT: criterion met

BINDER: H[dS]QGTFTSDK([γGlu-γGlu-Palmitoyl])SKYLDERAAK([AEEA-AEEA-C5N3])DFVQWLLDT-NH2 [PEP17]
CAT: criterion not met

Check the entry H[Aib]QGTFTSDYSKYLDARAAK([AEEA-AEEA-γGlu-C18 diacid])DFV[Lys(N3)]WL[Met(O2)]DT-NH2 [PEP30] : does hGLP1R EC50 (cAMP activity assay) equal or exceed 0.07 nM?
criterion met

Reference source: patent US20190175744A1
